- System: HMOX1
- protocol_summary: HMOX1 protein expression by immunofluorescence (primary screen, high-content imaging)
- Format: cell-based, human
- measurement_parameters: Homo sapiens; NHLF cells, immunofluorescence, dose response, FIG. 2; read-out: effective potency (HMOX1 induction)
experimental_readout: EC50

Measured EC50, `O=C(Nc1ccc2cn[nH]c2c1)c1ccc2[nH]c(Nc3nc4ccccc4s3)nc2c1` : < 1000 nM

====

Attribute: TXNRD1 (fold induction)
- System: TXNRD1
- protocol_summary: mRNA expression (Quantigene Plex) in NHLF cells: TXNRD1
- Type: cell-based, human
- measurement_parameters: Table 6, 6 h, mRNA normalized to GAPDH, above DMSO treated cells
- Protocol: Secondary growth of NHLF cells were used for all assays. Cell were thawed and then placed into culture in T225 flasks. The cells were grown to 80% confluency and harvested by washing once with HEPES buffered saline solution and then trypsinizing. Equal numbers (7×10^3 cells per well) of NHLF cells were plated in 96 well tissue culture plates (Corning). Cells were incubated overnight in FGM-2 medium prior to exposure to compound. […]

Consider the reported TXNRD1 (fold induction) for these molecules:
CC1OCCC1S(=O)(=O)c1c(-c2ccc(C(F)(F)F)cc2)cnc2ccccc12 (stereo not shown) = 1.47 fold induction
COC(=O)c1ccc2[nH]c(Nc3nc4ccccc4s3)nc2c1 = 1.74 fold induction

TXNRD1 assay, molecule COC(=O)[C@]12CCC(C)(C)CC1C1C(=O)C=C3[C@@]4(C)CC(C#N)C(=O)C(C)(C)[C@@H]4CC[C@@]3(C)[C@]1(C)CC2 (stereo partly shown) [Compound 5, reference compound] , recorded TXNRD1 (fold induction) = 1.83 fold induction

TXNRD1 assay, molecule C=Cc1c(C)c2cc3[nH]c(cc4nc(cc5nc(cc1[nH]2)C(C)=C5CCC(=O)[O-])C(CCC(=O)[O-])=C4C)c(C)c3C=C.[Co+2] [CoPP, Cobalt protoporphyrin IX, reference compound] , recorded TXNRD1 (fold induction) = 2.39 fold induction

====

- System: GADD45A
- protocol_summary: mRNA expression (Quantigene Plex) in NHLF cells: GADD45A
- Format: cell-based, human
- measurement_parameters: Table 6, 6 h, mRNA normalized to GAPDH, above DMSO treated cells
- Method: Secondary growth of NHLF cells were used for all assays. Cell were thawed and then placed into culture in T225 flasks. The cells were grown to 80% confluency and harvested by washing once with HEPES buffered saline solution and then trypsinizing. Equal numbers (7×10^3 cells per well) of NHLF cells were plated in 96 well tissue culture plates (Corning). Cells were incubated overnight in FGM-2 medium prior to exposure to compound. […]
experimental_readout: GADD45A (fold induction)
Record the value in fold induction, omitting the unit from your answer.

Consider the reported GADD45A (fold induction) for these molecules:
CC1OCCC1S(=O)(=O)c1c(-c2ccc(C(F)(F)F)cc2)cnc2ccccc12 (stereo not shown) [Compound 3] = 1.37
C=Cc1c(C)c2cc3[nH]c(cc4nc(cc5nc(cc1[nH]2)C(C)=C5CCC(=O)[O-])C(CCC(=O)[O-])=C4C)c(C)c3C=C.[Co+2] [CoPP, Cobalt protoporphyrin IX, reference compound] = 1.18
COC(=O)c1ccc2[nH]c(Nc3nc4ccccc4s3)nc2c1 [Compound 4] = 2.00

Measured GADD45A (fold induction), COC(=O)[C@]12CCC(C)(C)CC1C1C(=O)C=C3[C@@]4(C)CC(C#N)C(=O)C(C)(C)[C@@H]4CC[C@@]3(C)[C@]1(C)CC2 (stereo partly shown) [Compound 5, reference compound] : 0.89
